Test system: Tannase
Test: Effect of metallic ion and inhibitor on tannase activity
Format: biochemical, Aspergillus awamori
Settings: 20 mM metallic ion or EDTA, 30° C. 30 minutes, pH 5.0; no addition = 100%
MEASURED QUANTITY: Relative activity (%)
# output: bare number, implied unit %

The examples below pair each entry with its known result.
[
  {
    "INPUT SMILES": "[Ca+2]",
    "MEASURED QUANTITY": "Relative activity (%)",
    "QUANTITATIVE RESULT": 109
  },
  {
    "INPUT SMILES": "[Fe+3]",
    "MEASURED QUANTITY": "Relative activity (%)",
    "QUANTITATIVE RESULT": 91
  },
  {
    "INPUT SMILES": "O=C(O)CN(CCN(CC(=O)O)CC(=O)O)CC(=O)O",
    "MEASURED QUANTITY": "Relative activity (%)",
    "QUANTITATIVE RESULT": 101
  },
  {
    "INPUT SMILES": "[Mn+2]",
    "MEASURED QUANTITY": "Relative activity (%)",
    "QUANTITATIVE RESULT": 98
  },
  {
    "INPUT SMILES": "[Cu+2]",
    "MEASURED QUANTITY": "Relative activity (%)",
    "QUANTITATIVE RESULT": 72
  },
  {
    "INPUT SMILES": "[Mg+2]",
    "MEASURED QUANTITY": "Relative activity (%)",
    "QUANTITATIVE RESULT": 118
  }
]

Let us examine a further case.
Relative activity (%) in this record for `[Zn+2]` : 82
